Where do these numbers come from? They come from the supplement of paper PMC3842684.

Test system: P. falciparum NF54-pfs16-GFP early (I-III) stage gametocytes
Experiment: relative % inhibition of viable gametocyte number; higher = more gametocytocidal
Settings: 5 µM; stage: early (I-III) gametocyte; incubation 72 h
Value Kind: relative % inhibition (%)
Form entry: value (%) — number only.

The cases that follow already have their relative % inhibition on record.
[[record]]
compound = "CC(C)(C)c1ccc(C(=O)Nc2c3c(nn2-c2cccc(Cl)c2)CSC3)cc1"
result = 10.5

[[record]]
compound = "COc1ccc(-c2nonc2NC(=O)c2cccc(C)c2)cc1OC"
result = 39.2

[[record]]
compound = "Cc1ccc(-c2cc3c(SCC(=O)Nc4cc(C(F)(F)F)ccc4Cl)nccn3n2)cc1"
result = -12

[[record]]
compound = "Cn1c(=O)c2cc(C(=O)NCCCN3CCCCCC3)sc2c2ccccc21"
result = 27.4

[[record]]
compound = "COc1cccc(Nc2nc(N)c3ccccc3n2)c1"
result = -5.49


Look up relative % inhibition: COc1ccc2c(c1OC)C(=O)N1c3ccccc3N=C(c3ccc(C)cc3)CC21 (stereo not given)
60.6

Look up relative % inhibition: CCCN(CCC)CCCNC(=O)c1cc2c(-c3ccc(OC)c(OC)c3)nn(C)c2s1
43.5

Look up relative % inhibition: Cc1ccc(NC(=O)Nc2cccc(Cl)c2)cc1F
28.9

Look up relative % inhibition: Cc1ccc(C)c(Cn2c(N3CCC(C(=O)NCc4cccs4)CC3)nc3ccccc32)c1
39.4

Look up relative % inhibition: COc1cccc(NC(=O)[C@H](C(C)C)n2c(=O)[nH]c3ccccc3c2=O)c1
97.8
